# tested.target: NP of A/California/07/2009(H1N1/H1S) (influenza A virus, NYMC X-181 derived …)
# Sequence (P03466 whole entry): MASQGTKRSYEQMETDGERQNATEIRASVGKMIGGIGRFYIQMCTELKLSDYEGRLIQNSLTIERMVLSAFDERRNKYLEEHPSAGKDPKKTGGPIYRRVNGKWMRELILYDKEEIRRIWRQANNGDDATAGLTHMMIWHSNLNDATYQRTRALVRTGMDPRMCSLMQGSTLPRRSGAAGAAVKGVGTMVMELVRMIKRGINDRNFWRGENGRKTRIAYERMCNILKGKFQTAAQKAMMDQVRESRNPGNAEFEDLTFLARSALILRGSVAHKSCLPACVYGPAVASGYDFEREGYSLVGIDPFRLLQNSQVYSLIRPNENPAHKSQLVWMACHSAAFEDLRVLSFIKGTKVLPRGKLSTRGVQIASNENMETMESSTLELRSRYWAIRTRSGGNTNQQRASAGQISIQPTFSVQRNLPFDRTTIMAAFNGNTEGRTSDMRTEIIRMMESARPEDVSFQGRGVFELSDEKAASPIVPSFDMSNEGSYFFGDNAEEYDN
# test.name: sandwich ELISA, capture IgG; NP of lysed virus titrated; HRP-NP16 detection
value.kind: pEC50
The quantity pEC50 is defined as the negative base-10 logarithm of the molar concentration.

NP5 (antibody, V domains shown) VH: EVQLVESGGGLVQPGGSLRLSCAASGFTISNGSIHWVRQAPGKGLEWVAGIWPSGGSTSYADSVKGRFTISADTINNSAYLQMNSLRAEDTAVYYCARWNYWGQGTLVTVSS VL: DIQMTQSPSSLSASVGDRVTITCRASQDVGWSVAWYQQKPGKAPKLLIYGSRWLYSGVPSRFSGSGSGTDFTLTISSLQPEDFATYYCQQGYNGPLTFGQGTKVEIKR | 8.48
NP16 (antibody, V domains shown) VH: EVQLVESGGGLVQPGGSLRLSCAASGFTIGNSGIHWVRQAPGKGLEWVAWIGPYWGFTSYADSVKGRFTISADTSKNTAYLQMNSLRAEDTAVYYCARFGNHWHLFMDYWGQGTLVTVSS VL: DIQMTQSPSSLSASVGDRVTITCRASQDVGSYVAWYQQKPGKAPKLLISWTTGLYSGVPSRFSGSGSGTDFTLTISSLQPEDFATYYCQQYFSYPVTFGQGTKVEIKR | 8.36

Exercise: Bench note: what pEC50 did NP15 (antibody, V domains shown) VH: EVQLVESGGGLVQPGGSLRLSCAASGFTISNWYIHWVRQAPGKGLEWVAGIGPYGGSTYYADSVKGRFTISADTSKNTAYLQMNSLRAEDTAVYYCARFHWDHLHGMDYWGQGTLVTVSS VL: DIQMTQSPSSLSASVGDRVTITCRASQDVDNNVAWYQQKPGKAPKLLISYSTGLYSGVPSRFSGSGSGTDFTLTISSLQPEDFATYYCQQYWNYPITFGQGTKVEIKR show?
Solution: 8.55
